Test system: OVCAR-5 ovarian
Test: NCI tumour cell line growth inhibition, 48 h; in the data active means GI50 below about 0.43 µM; inactive means the rest
Classes used: active, inactive

COMPOUND	DISCRETE LABEL
CC[C@@]1(O)C(=O)OCc2c1cc1n(c2=O)Cc2cc3cccc(N)c3nc2-1	inactive
CN(C)c1ccc2cc3c(cc2c1)Oc1ccccc1N3.[Cl][Zn][Cl]	inactive
Cc1ccc2c(c1)C(=O)/C(=C/c1cccc(OCC(=O)c3ccc(Cl)cc3)c1)CS2	inactive
CC1OC(OC2C(O)C(OCCc3ccc(O)c(O)c3)OC(CO)C2OC(=O)/C=C/c2ccc(O)c(O)c2)C(O)C(O)C1O (stereo unspecified)	inactive
Cc1nccc2c3ccc(OCc4cn(-c5ccc(Br)cc5)nn4)cc3n(CCCc3ccccc3)c12	inactive
CCOC1Oc2ccccc2C(=O)/C1=C\Nc1ccc(C(=O)O)c(O)c1 (stereo unspecified)	inactive
C#Cc1cccc(Nc2ncnc3ccc(-c4cnc(N)nc4)cc23)c1	inactive
Cc1cc(C(=O)CC(Cl)=C(Cl)Cl)c(Cl)cc1Cl	inactive
COC1/C=C/OC2(C)Oc3c(C)c(O)c4c(O)c(c(/C=N/N(c5ccccc5)c5ccccc5)c(O)c4c3C2=O)NC(=O)C(C)=C/C=C/C(C)C(O)C(C)C(O)C(C)C(OC(C)=O)C1C (stereo unspecified)	inactive
Fc1ccc(-c2c(-c3ccncc3)[nH]c3cccnc23)cc1	inactive
NCCNc1ccc(NCCN)c2c1C(=O)c1c(O)ccc(O)c1C2=O	active
Cl.[O-]c1cccc2cccnc12.[O-]c1cccc2cccnc12.[O-]c1cccc2cccnc12.[O-]c1cccc2cccnc12.[Ti+4]	inactive
O=C(CS(=O)c1nc2ccccc2nc1-c1ccccc1)Nc1ccc(Cl)cc1 (stereo unspecified)	inactive
CCCCNP1(NCCCC)=NP(NCCCC)(NCCCC)=NP(NCCCC)(NCCCC)=NP(NCCCC)(NCCCC)=N1	inactive
O=C1c2c(c3c4ccccc4n(CCCCCCN4CCOCC4)c3c3[nH]c4ccccc4c23)C(=O)N1O	inactive
Cc1cc2oc(=O)cc(OC/C=C3/CCC(=O)O3)c2cc1C	inactive

---

Test system: SK-OV-3 ovarian
Assay: NCI tumour cell line growth inhibition, 48 h
MEASURED PARAMETER: TGI

>>> print(df.to_string())
                                    compound  measured_parameter  measured_value
 0  COc1cccc(C2c3cc4c(cc3OC(NNC(N)=O)C2C)OCO4)c1OC (centres undefined)                 TGI         85.3 µM
 1  Cn1c2ccccc2c2c(=O)n(CCCC(=O)NCCc3cnc[nH]3)c3c(-c4ccccc4)nnn3c21                 TGI         18.7 µM
 2  COc1ccc2c(c1)C(=O)/C(=C/c1cccc(OCC(=O)c3ccc([N+](=O)[O-])cc3)c1)CO2                 TGI           23 µM
 3  COc1ccc(Cl)cc1Nc1nc(C(F)(F)F)ccc1C(=O)N/N=C/c1ccccc1Cl                 TGI         12.5 µM
 4  CCOC(=O)c1cc(C2CCN(Cc3ccccc3)C2=O)c(C(=O)/C=C(/C)N)[nH]1 (centres undefined)                 TGI        > 100 µM
 5  Cc1nccc2c3ccc(OCc4cn(-c5ccc(Br)cc5)nn4)cc3n(CCCc3ccccc3)c12                 TGI        > 100 µM
 6  O=C(O)c1ccc(Nc2nc3ccc(C(F)(F)F)cc3nc2C(=O)O)cc1                 TGI        > 100 µM
 7  CCC1=CCC(P(=O)(c2ccccc2)c2ccccc2)CC1C (centres undefined)                 TGI        > 100 µM
 8  CC[C@@]1(O)C(=O)OCc2c1cc1n(c2=O)Cc2cc3cccc(N)c3nc2-1                 TGI         29.7 µM
 9  COc1cccc2c1C(=O)c1c(O)c3c(c(O)c1C2=O)CC(O)(C(C)=O)CC3OC1OC(COC(C)=O)C(OC(C)=O)C(OC(C)=O)C1OC(C)=O (centres undefined)                 TGI        > 100 µM
10    O=C(N/N=C\c1ccc(Cl)cc1)Nc1cccc2ccccc12                 TGI         6.75 µM
11  O=C1C(c2ccccc2)=[N+]([O-])c2cc([N+](=O)[O-])ccc21                 TGI        > 100 µM
12  COC(=O)/C(=N\Nc1nc(=S)[nH]n1N)C(C#N)c1ccc(Cl)cc1 (centres undefined)                 TGI        > 100 µM
13  CC(C)(C)C1CCC2c3c([nH]c4ccccc34)C3C(=O)N(c4cc(Cl)ccc4Cl)C(=O)C3C2C1 (centres undefined)                 TGI        > 100 µM
14  CN(C)c1ccc(/C=N/n2c(CCCCc3n[nH]c(=S)n3/N=C/c3ccc(N(C)C)cc3)n[nH]c2=S)cc1                 TGI        > 100 µM
15  C=C1CCCC2OC(OC)CCC12 (centres undefined)                 TGI        > 100 µM
16  O=C(Nc1cccc(-n2ccc3c(NC(=O)c4ccccc4)nccc32)c1)c1ccc(Cl)c(Cl)c1                 TGI          1.1 µM
17  O=[N+]([O-])c1cc(C(F)(F)F)cc2c1SC1=Nc3ccccc3CN12                 TGI        > 100 µM
18  CC(NNC(=S)N1CCCC1)c1cccnn1 (centres undefined)                 TGI       > 65.5 µM
19  N#Cc1c2c(c(Nc3cccc(C(F)(F)F)c3)n3c1nc1ccccc13)CCCC2                 TGI           48 µM
20  O=C(NCCCN1CCN(CCCNC(=O)c2cc(-c3ccccc3)nc3ccccc23)CC1)c1cc(-c2ccccc2)nc2ccccc12                 TGI         40.2 µM
21  C/C1=C\CC[C@@]2(C)O[C@@H]2C[C@@H]2[C@H](C/C(C)=C/CC1)OC(=O)[C@]21CO1                 TGI        > 100 µM
22  CCN(CC)CCCNc1nccc2c(C)c3[nH]c4ccncc4c(=O)c3cc12                 TGI           16 µM
23  COc1c(-c2ccc(F)cc2)oc2c(CC(=O)O)cccc2c1=O                 TGI        > 100 µM
24  CCOC(=O)Cc1ccc(Nc2nc3cc(F)c(F)cc3nc2C(=O)OCC)cc1                 TGI        > 100 µM
25  CC(C)NC(=O)OCc1c(COC(=O)NC(C)C)c(-c2cc[n+](COC(=O)Cc3ccccc3)cc2)n2c1CCC2                 TGI        > 100 µM
26                      Cc1ccc(C(CCO)CCO)nc1                 TGI        > 100 µM
27  N#CCCN(c1ccc(C=Nc2ccc(C(=O)O)cc2)cc1)S(=O)(=O)c1ccccc1                 TGI        > 100 µM
28  COc1cc2c(cc1OC)-c1cc3cc(OC)c(OC)cc3c(C)[n+]1CC2 (tested in a mixture with another compound)                 TGI        > 100 µM
29             O=S1(=O)OCCOS(=O)(=O)C1(Br)Br                 TGI        > 100 µM
30         O=C1NC(NNc2ccccc2)=N/C1=C\c1ccco1                 TGI        > 100 µM
31  CCOC1Oc2ccccc2C(=O)/C1=C\Nc1ccc(C(=O)O)c(O)c1 (centres undefined)                 TGI         67.6 µM
32          Cc1c2c(n3c(nc4ccccc43)c1C#N)NCC2                 TGI         > 10 µM
33  CCCCCCCCCCCCCCCCCC(=O)NCC(COP(=O)([O-])OCC[N+](C)(C)C)OCC (centres undefined)                 TGI         33.7 µM

---

Test system: HS 578T breast
Assay: NCI tumour cell line growth inhibition, 48 h
Catalogue of TGI values
MEASURED PARAMETER: TGI (µM)

                                   molecule  measured_parameter  reading_qualifier  measured_value
0  C[N+]1(C)C/C(=C\C=C\c2ccccc2)C(=O)/C(=C/C=C/c2ccccc2)C1                 TGI                  >            61.4
1   Fc1ccc(-c2c(-c3ccncc3)[nH]c3cccnc23)cc1                 TGI                  >              25
2  CSc1c(S(C)=O)c2ccccc2n1C (stereo not given)                 TGI                  >             100
3  O=C(Nc1cccc(-n2ccc3c(NC(=O)c4ccccc4)nccc32)c1)c1ccc(Cl)c(Cl)c1                 TGI                  =            1.31
4  CCCCCCC(O)C(=O)OC1C2C(CC1(C)C)C(O)C13OC1C(O)C1(CO1)[C@@]23C (stereo not given in full)                 TGI                  =            79.3
